Test system: HIV-1 wild type
assay-notes: microbe, parasite or virus in culture
Type: cell-based
experimental-setup: Human immunodeficiency virus 1, read-out: EC50 WT RT (nM)
measured-attribute: EC50

Worked cases, answers included:
{"record-smiles": "CCN1c2ncc(CCOc3ccc(C(=O)Nc4cccc(CC(=O)O)c4)cc3C)cc2C(=O)N(C)c2cccnc21", "subject-of-test": "HIV-1 wild type", "EC50": "10 to 50 nM"}
{"record-smiles": "CCN1c2ncc(CCOc3ccc(C(=O)c4ccc(C(=O)O)cc4)cc3C)cc2C(=O)N(C)c2cccnc21", "subject-of-test": "HIV-1 wild type", "EC50": "< 10 nM"}

Exam item: Which EC50 reading was recorded for the compound CCN1c2ncc(CCOc3ccc(C(=O)Nc4ccc(CC(=O)O)cc4)cc3C)cc2C(=O)Nc2c(C)ccnc21 ?
Marked response: 10 to 50 nM
